- Test system: LCLC-103H
- assay_procedure: relative viability (nuclei count vs DMSO), 5 days (fraction); higher = more cells survive
- run_conditions: first compound 158.11 µM
Flag rule - relative viability less than 0.4 flags Satisfied; the remaining entries get Not satisfied.

| molecule | group |
| --- | --- |
| O=C(O)CCCCC(CCSCc1ccccc1)SCc1ccccc1 (stereo unspecified) [CPI-613] + Cc1cc(Nc2cc(N3CCN(C)CC3)nc(Sc3ccc(NC(=O)C4CC4)cc3)n2)n[nH]1 [Tozasertib] (partner 0.1 µM) | Satisfied |
| O=C(O)CCCCC(CCSCc1ccccc1)SCc1ccccc1 (stereo unspecified) [CPI-613] + CC(=O)Nc1cccc(-n2c(=O)n(C3CC3)c(=O)c3c(Nc4ccc(I)cc4F)n(C)c(=O)c(C)c32)c1 [Trametinib] (partner 0.02 µM) | Not satisfied |
| O=C(O)CCCCC(CCSCc1ccccc1)SCc1ccccc1 (stereo unspecified) [CPI-613] + O=C(CCCCCCC(=O)Nc1ccccc1)NO [Vorinostat] (partner 1 µM) | Not satisfied |
| O=C(O)CCCCC(CCSCc1ccccc1)SCc1ccccc1 (stereo unspecified) [CPI-613] + CCNC(=O)c1noc(-c2cc(C(C)C)c(O)cc2O)c1-c1ccc(CN2CCOCC2)cc1 [Luminespib] (partner 0.01 µM) | Not satisfied |
| O=C(O)CCCCC(CCSCc1ccccc1)SCc1ccccc1 (stereo unspecified) [CPI-613] + Cc1nc(Nc2ncc(C(=O)Nc3c(C)cccc3Cl)s2)cc(N2CCN(CCO)CC2)n1 [Dasatinib] (partner 0.075 µM) | Not satisfied |
| O=C(O)CCCCC(CCSCc1ccccc1)SCc1ccccc1 (stereo unspecified) [CPI-613] + COc1cc2c(Oc3ccc(NC(=O)C4(C(=O)Nc5ccc(F)cc5)CC4)cc3F)ccnc2cc1OCCCN1CCOCC1 [Foretinib] (partner 0.25 µM) | Satisfied |
